Source: patent US9469615B2

Target: hCRTH2 (Homo sapiens)
Construct: expressed in transfected cells; host or cells: HEK (human embryonic kidney) cells expressing hCRTH2; membrane preparation
Sequence (Q9Y5Y4 1-395): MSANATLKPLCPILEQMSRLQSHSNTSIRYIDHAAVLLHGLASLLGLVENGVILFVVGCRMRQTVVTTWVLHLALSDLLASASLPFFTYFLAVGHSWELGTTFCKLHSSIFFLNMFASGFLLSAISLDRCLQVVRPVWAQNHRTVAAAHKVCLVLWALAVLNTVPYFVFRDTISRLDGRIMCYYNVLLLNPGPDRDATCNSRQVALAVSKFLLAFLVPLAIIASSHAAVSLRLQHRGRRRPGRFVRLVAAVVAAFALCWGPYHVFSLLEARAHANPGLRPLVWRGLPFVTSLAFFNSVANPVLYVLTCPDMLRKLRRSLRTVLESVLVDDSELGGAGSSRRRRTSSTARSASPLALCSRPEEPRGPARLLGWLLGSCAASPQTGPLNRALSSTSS
Experiment: Radioligand binding assay ([3H]PGD2 competition, HEK-hCRTH2 membranes)
Details: [3H]PGD2 competition, Table B
pKi: −log10 of the molar value.
Value kind: pKi

>  <Compound>
C[C@@H]1CN(c2ccc(Cl)cc2)CCN1C(=O)c1ccc2nc(-c3ccc(Cl)cc3)c(CCCCC(=O)O)nc2c1

>  <Measurement>
7.70 to 8.68

$$$$
>  <Compound>
O=C(N[C@@H]1CCCc2ccccc21)c1ccc2nc(-c3ccc(F)cc3)c(CC[C@@H]3C[C@H]3C(=O)O)nc2c1

>  <Measurement>
7.70 to 8.68

$$$$
>  <Compound>
O=C(O)CCCCc1nc2cc(C(=O)N3CC4CC4(c4ccccc4)C3)ccc2nc1-c1ccc(Cl)cc1 (stereo not shown)

>  <Measurement>
7.70 to 8.68

$$$$
>  <Compound>
C[C@H](CCc1nc2cc(C(=O)N[C@@H]3CCCc4ccccc43)ccc2nc1-c1ccc(F)cc1)CC(=O)O

>  <Measurement>
7.70 to 8.68

$$$$

* * *

Entries annotated with measured Ki
molecular target: hCRTH2 (Homo sapiens); construct: expressed in transfected cells; host or cells: HEK (human embryonic kidney) cells expressing hCRTH2; membrane preparation; test: Radioligand binding assay ([3H]PGD2 competition, HEK-hCRTH2 membranes); settings: [3H]PGD2 binding, rated A-E (Table A)

>  <Molecule>
CS(=O)(=O)c1ccc(-c2nc3ccc(C(=O)N4CCC(c5ccccc5)CC4)cc3nc2CCCCC(=O)O)cc1 [26X]

>  <Ki>
20.1 to 200 nM

$$$$
>  <Molecule>
O=C(O)CCCCc1nc2cc(C(=O)N3CCC(c4ccccc4)C3)ccc2nc1-c1cccc(F)c1 (stereo not shown) [26E]

>  <Ki>
2.1 to 20 nM

$$$$
>  <Molecule>
O=C(O)CCCCc1nc2cc(C(=O)N[C@@H]3CCc4cc(F)ccc43)ccc2nc1-c1ccc(F)cc1

>  <Ki>
0.1 to 2 nM

$$$$
>  <Molecule>
O=C(NCc1cccc(Cl)c1)c1ccc2nc(-c3ccccc3)c(CCCc3nnn[nH]3)nc2c1

>  <Ki>
20.1 to 200 nM

$$$$
>  <Molecule>
O=C(O)CCCCc1nc2cc(C(=O)NCc3ccc(OC(F)(F)F)cc3)ccc2nc1-c1ccccc1 [15AV]

>  <Ki>
0.1 to 2 nM

$$$$
>  <Molecule>
O=C(O)CCCCc1nc2cc(C(=O)NCc3ccc(F)cc3)ccc2nc1-c1ccc(F)cc1

>  <Ki>
2.1 to 20 nM

$$$$
>  <Molecule>
CC(CCCc1nc2cc(C(=O)N(C)Cc3cccc(F)c3)ccc2nc1-c1ccc(F)cc1)C(=O)O (stereo not shown)

>  <Ki>
2.1 to 20 nM

$$$$
>  <Molecule>
CC(NC(=O)c1ccc2nc(-c3ccc(C(F)(F)F)cc3)c(CCCCC(=O)O)nc2c1)c1ccc(-c2ccccc2)cc1 (single isomer, unassigned) [4G]

>  <Ki>
2.1 to 20 nM

$$$$
>  <Molecule>
O=C(O)CCCCc1nc2cc(C(=O)NC(c3ccc(F)cc3)C(F)(F)F)ccc2nc1-c1ccccc1 (stereo not shown) [15Q]

>  <Ki>
0.1 to 2 nM

$$$$
>  <Molecule>
COC(=O)c1cnc2nc(-c3ccccc3)c(CCCCC(=O)O)nc2c1

>  <Ki>
20.1 to 200 nM

$$$$
>  <Molecule>
O=C(O)CCCCc1nc2cc(C(=O)N3CCC(c4ccccc4)C3)ccc2nc1-c1cc(Cl)cc(Cl)c1 (stereo not shown) [26G]

>  <Ki>
2.1 to 20 nM

$$$$
>  <Molecule>
C[C@@H](c1ccccc1)N(C)C(=O)c1ccc2nc(-c3ccc(F)cc3)c(CCCCC(=O)O)nc2c1 [21C]

>  <Ki>
2.1 to 20 nM

$$$$
>  <Molecule>
O=C(O)CCCCc1nc2cc(C(=O)N3CCC(c4ccccc4)C3)ccc2nc1-c1cc(F)cc(F)c1 (stereo not shown) [26i]

>  <Ki>
2.1 to 20 nM

$$$$
>  <Molecule>
COc1ccc(-c2nc3ccc(C(=O)N4CCC(c5ccccc5)CC4)cc3nc2CCCCC(=O)O)c(OC)c1 [26Z]

>  <Ki>
0.1 to 2 nM

$$$$
>  <Molecule>
O=C(O)CCCCc1nc2cc(C(=O)N3CCC(c4ccccc4)CC3)ccc2nc1-c1cccc(Cl)c1 [26J]

>  <Ki>
0.1 to 2 nM

$$$$
>  <Molecule>
O=C(O)CCCNc1nc2cc(C(=O)N3CCC(c4ccc(F)cc4)CC3)ccc2nc1-c1ccccc1 [44J]

>  <Ki>
2.1 to 20 nM

$$$$
